I'd appreciate it if you could supply pIC50 values for the items below.
# System: P. falciparum Dd2 (PfDd2)
# Method Summary: microbe, parasite or virus in culture
# Assay type: cell-based
# Measurement Setup: Plasmodium falciparum, DD2, read-out: IC50 PfDd2
Numbers only, as −log10 of the molar value.

Worked cases, answers included:
CCOc1ccc2c3ccnc(C)c3n(CCNC(=O)CNc3ccnc4cc(Cl)ccc34)c2c1 [Compound 33] : 8.19
CCCOc1ccc2c(c1)c1ccnc(C)c1n2Cc1cn(CCNc2ccnc3cc(Cl)ccc23)nn1 [Compound 42] : 7.81
CCCOc1ccc2c3ccnc(C)c3n(CCNC(=O)CNc3ccnc4cc(Cl)ccc34)c2c1 [Compound 34] : 7.75
CC(C)c1nccc2c3ccccc3n(Cc3cn(CCNc4ccnc5cc(Cl)ccc45)nn3)c12 [Compound 45] : 7.73
COc1ccc2c(c1)c1ccnc(C)c1n2Cc1cn(CCNc2ccnc3cc(Cl)ccc23)nn1 [Compound 41] : 7.01

Would you be so kind as to report pIC50 for each listed record?
1. CCCOc1ccc2c(c1)c1ccnc(C)c1n2CCNC(=O)CNc1ccnc2cc(Cl)ccc12 [Compound 37]
2. CCc1nccc2c3ccccc3n(Cc3cn(CCNc4ccnc5cc(Cl)ccc45)nn3)c12 [Compound 43]
3. CCCOc1ccc2c3ccnc(C)c3n(Cc3cn(CCNc4ccnc5cc(Cl)ccc45)nn3)c2c1 [Compound 39]

7.98
6.69
7.70

Would you be so kind as to report pIC50 for each listed record?
1. Cc1nccc2c3ccc(OC(C)C)cc3n(Cc3cn(CCNc4ccnc5cc(Cl)ccc45)nn3)c12 [Compound 40]
2. CCCc1nccc2c3ccccc3n(Cc3cn(CCNc4ccnc5cc(Cl)ccc45)nn3)c12 [Compound 44]
3. Cc1nccc2c3ccc(OC(C)C)cc3n(CCNC(=O)CNc3ccnc4cc(Cl)ccc34)c12 [Compound 35]
4. COc1ccc2c(c1)c1ccnc(C)c1n2CCNC(=O)CNc1ccnc2cc(Cl)ccc12 [Compound 36]
5. CCOc1ccc2c3ccnc(C)c3n(Cc3cn(CCNc4ccnc5cc(Cl)ccc45)nn3)c2c1 [Compound 38]

1: 7.48; 2: 6.67; 3: 7.58; 4: 7.44; 5: 7.09

* * *

# Test system: HepG2 cells
# Method Summary: In vitro cytotoxicity, neutral red assay
# Format: cell-based
# Measurement Setup: Homo sapiens, HepG2, 24 h, one day of incubation, mean ± SD (n ≥ 2)
Attribute Measured: IC50 (µM)
Answers are plain numbers, in µM.

Worked cases, answers included:
Cc1nccc2c3ccc(OC(C)C)cc3n(CCNC(=O)CNc3ccnc4cc(Cl)ccc34)c12 : 127
CC(C)c1nccc2c3ccccc3n(Cc3cn(CCNc4ccnc5cc(Cl)ccc45)nn3)c12 : 128
CCCOc1ccc2c3ccnc(C)c3n(Cc3cn(CCNc4ccnc5cc(Cl)ccc45)nn3)c2c1 : 14.4

Let us examine a further case.
Item "CCOc1ccc2c3ccnc(C)c3n(Cc3cn(CCNc4ccnc5cc(Cl)ccc45)nn3)c2c1" has what recorded IC50?
29.6

* * *

# Measured On: human serum albumin (HSA) (Homo sapiens, UniProt P02768)
# Sequence (P02768 25-609): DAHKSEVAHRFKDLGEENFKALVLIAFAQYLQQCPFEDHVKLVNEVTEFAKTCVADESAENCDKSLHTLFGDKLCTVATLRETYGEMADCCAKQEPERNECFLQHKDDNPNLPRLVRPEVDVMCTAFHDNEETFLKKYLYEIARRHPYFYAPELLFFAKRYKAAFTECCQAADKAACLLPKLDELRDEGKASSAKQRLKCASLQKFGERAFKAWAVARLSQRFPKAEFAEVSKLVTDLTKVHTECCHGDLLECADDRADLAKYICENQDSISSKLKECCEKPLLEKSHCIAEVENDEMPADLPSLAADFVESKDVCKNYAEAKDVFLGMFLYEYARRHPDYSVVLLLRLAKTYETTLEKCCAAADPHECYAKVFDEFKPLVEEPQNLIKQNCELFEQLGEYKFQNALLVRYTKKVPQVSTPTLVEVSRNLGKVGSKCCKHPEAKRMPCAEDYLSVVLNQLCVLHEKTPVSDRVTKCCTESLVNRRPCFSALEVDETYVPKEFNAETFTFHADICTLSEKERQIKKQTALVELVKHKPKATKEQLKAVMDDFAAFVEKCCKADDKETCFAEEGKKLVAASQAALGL
# Method Summary: biochemical
Attribute Measured: Kd (µM)
One number for each entry, in µM.

Missing value: Kd, human serum albumin (HSA) (Homo sapiens, UniProt P02768), entry "CCCOc1ccc2c3ccnc(C)c3n(CCNC(=O)CNc3ccnc4cc(Cl)ccc34)c2c1" . Fill in?
0.794

All values here come from paper PMC11678116.
